Here the recorded Kd is given for each entry.
Measured target: T1, ABH2 I168A (human, UniProt Q6NS38 1-261, I168A)
T1 sequence: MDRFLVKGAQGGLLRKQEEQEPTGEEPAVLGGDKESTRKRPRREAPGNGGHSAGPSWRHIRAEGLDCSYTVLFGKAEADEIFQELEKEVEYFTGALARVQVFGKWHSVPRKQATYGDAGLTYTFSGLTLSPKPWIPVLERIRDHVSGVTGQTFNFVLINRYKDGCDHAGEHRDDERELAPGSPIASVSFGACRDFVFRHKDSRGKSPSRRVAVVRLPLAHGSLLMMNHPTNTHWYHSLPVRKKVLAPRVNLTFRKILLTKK
Protocol details: EMSA; 0.5 mM αKG, 10 mM Mg2+, 2 mM ascorbate; EMSA: 50 mM Tris-HCl pH 8.0, 50 mM KCl, 10 mM MgCl2, 0.5 mM αKG, 2 mM Na ascorbate; 1.2 µM DNA, 0.4-12.8 µM protein; 10 min 37 °C then 5 min on ice; 10% native
Particulars: protein: recombinant; tags: N-terminal His6; label: 5'-FAM on strand 1; blunt
Number in µM, nothing else.

1. m1A (dsDNA, N1-methyladenine at position 10 of strand 1) DNA 1: AGTTCAATGATCTTCAT DNA 2: ATGAAGATCATTGAACT | 2.7

Let's switch to this binder now.
I'd like to know its Kd. The binder in question is m3C (dsDNA, N3-methylcytosine at position 12 of strand 1) DNA 1: AGTTCAATGATCTTCAT DNA 2: ATGAAGATCATTGAACT
4.1
